Below is a list of entries, each paired with its recorded EC50 value.
Target: F508delCFTR (Homo sapiens, UniProt P13569, DEL508-508)
Sequence (P13569 with tags, fused parts or gaps DEL508-508): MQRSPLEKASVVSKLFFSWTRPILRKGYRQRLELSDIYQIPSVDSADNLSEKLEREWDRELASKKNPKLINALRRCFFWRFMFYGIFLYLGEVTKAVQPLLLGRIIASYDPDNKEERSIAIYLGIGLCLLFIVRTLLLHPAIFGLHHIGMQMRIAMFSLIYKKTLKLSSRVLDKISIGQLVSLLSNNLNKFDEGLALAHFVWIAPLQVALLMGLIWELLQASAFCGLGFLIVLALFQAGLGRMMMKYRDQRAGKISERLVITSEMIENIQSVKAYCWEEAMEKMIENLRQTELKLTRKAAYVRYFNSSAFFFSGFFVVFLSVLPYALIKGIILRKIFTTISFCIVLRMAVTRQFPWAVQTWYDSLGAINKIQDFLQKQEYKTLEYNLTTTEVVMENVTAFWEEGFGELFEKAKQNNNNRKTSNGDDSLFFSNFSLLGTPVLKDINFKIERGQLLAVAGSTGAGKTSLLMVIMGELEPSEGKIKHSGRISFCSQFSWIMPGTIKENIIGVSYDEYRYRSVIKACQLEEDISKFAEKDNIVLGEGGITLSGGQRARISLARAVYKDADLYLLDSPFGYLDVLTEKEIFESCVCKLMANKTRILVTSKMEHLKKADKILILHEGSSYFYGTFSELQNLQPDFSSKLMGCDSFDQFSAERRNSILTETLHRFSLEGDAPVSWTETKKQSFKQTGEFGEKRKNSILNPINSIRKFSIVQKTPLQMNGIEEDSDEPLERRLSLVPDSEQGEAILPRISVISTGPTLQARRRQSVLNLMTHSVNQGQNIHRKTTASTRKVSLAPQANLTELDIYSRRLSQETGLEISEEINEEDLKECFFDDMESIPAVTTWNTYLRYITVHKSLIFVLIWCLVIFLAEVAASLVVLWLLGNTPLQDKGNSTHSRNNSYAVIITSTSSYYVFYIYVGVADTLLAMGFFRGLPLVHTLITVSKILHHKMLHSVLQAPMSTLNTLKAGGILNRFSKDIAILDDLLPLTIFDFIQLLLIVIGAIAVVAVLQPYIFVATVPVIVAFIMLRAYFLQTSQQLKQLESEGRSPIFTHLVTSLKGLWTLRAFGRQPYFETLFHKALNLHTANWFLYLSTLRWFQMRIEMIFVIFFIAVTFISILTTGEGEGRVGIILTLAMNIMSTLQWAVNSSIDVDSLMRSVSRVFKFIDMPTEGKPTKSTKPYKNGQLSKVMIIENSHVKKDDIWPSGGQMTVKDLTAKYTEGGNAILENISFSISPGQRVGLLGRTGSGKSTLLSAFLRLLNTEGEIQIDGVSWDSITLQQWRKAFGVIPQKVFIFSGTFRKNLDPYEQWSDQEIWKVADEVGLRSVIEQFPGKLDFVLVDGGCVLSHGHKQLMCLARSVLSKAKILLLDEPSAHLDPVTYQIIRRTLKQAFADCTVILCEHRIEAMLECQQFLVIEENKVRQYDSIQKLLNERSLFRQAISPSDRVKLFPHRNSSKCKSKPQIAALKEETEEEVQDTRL
Assay: Cell Surface Expression-Horse Radish Peroxidase (CSE-HRP) assay
Conditions: CFBE41o-F508delCFTR-HRP cells; F508delCFTR cell surface expression, luminescence; 18-24 hours at 33° C.; highest concentration 20 μM
Report the value in µM with no unit label.

COc1ccc2c(c1)O[C@@H](c1ccc(C(=O)O)cc1)C[C@H]2NC(=O)C(C)(C)c1ccc2c(c1)OCCO2 = 0.36
COc1ccc2c(c1)OCC2(C)C(=O)N[C@@H]1C[C@H](c2cccc(C(=O)O)c2)Oc2ccccc21 (stereo partly shown) = 1.3
COc1ccc2c(c1)CC[C@]2(C)C(=O)N[C@@H]1C[C@H](c2cccc(C(=O)O)c2)Oc2cc(OC)ccc21 = 0.2

// next item, EC50 requested
Just so you know, measured EC50 for COc1ccc2c(c1)OC(c1ccc(OC)c(OC)c1)CC2NC(=O)C1(c2ccc(F)cc2)CC1 (stereo not shown) came out at 0.89
